experiment_description: SGF digest of 168 nutritive polypeptide library, intact protein by LC-MS/MS
Type: in vitro ADME
measurement_parameters: 168 nutritive polypeptide library SGF digest, LC-MS/MS spectral counts
quantity_name: % Intact Protein at 10 min
Number first, unit second: that is the form wanted.

### Prompt // returns reported % Intact Protein at 10 min for input SEQID-00545: protein of the 168 nutritive polypeptide library (protein, listed as Saccharomyces cerevisiae, source: /note="strain ATCC 204508 / S288c", protein of the 168 nutritive polypeptide library) MLSRAIFRNPVINRTLLRARPGAYHATRLTKNTFIQSRKYSDAHDEETFEEFTARYEKEFDEAYDLFEVQRVLNNCFSYDLVPAPAVIEKALRAARRVNDLPTAIRVFEALKYKVENEDQYKAYLDELKDVRQELGVPLKEELFPSSS
### Response 0%

### Prompt For the molecule SEQID-00598: nutritive polypeptide naturally produced in Flaxseed, recombinantly expressed in E. coli (protein, listed as Linum usitatissimum) MSRRCPGKNAWPELVGKSGNMAAATVERENRNVHAIVLKEGSAMTKDFRCDRVWVIVNDHGVVTSVPHIT , what % Intact Protein at 10 min is on record?
### Response 24.3%

### Prompt Name the reported % Intact Protein at 10 min value associated with the molecule SEQID-00624: protein of the 168 nutritive polypeptide library (protein, Arthrospira platensis NIES-39, protein of the 168 nutritive polypeptide library) MSEKTDQILEQLKSLSLLEASELVKQIEEAFGVDASASAGGGMMMMAAPGMAAPGAEAAAEEEKTEFDVILTEFPADKKIAVLKVVRSITGLGLKEAKDLVESAPKAIKEATTKEDAESIKKQLEESGAKVEVK
### Response 0%
